Test system: ATP;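 also: ATP exposure 15 min at 22 °C before imaging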
experimentSummary: switch fluorescence ratio, 500 uM ATP over buffer (Cy3 cluster intensity, sum of 5 cycles each) (fold (ratio)); higher = stronger signal-on switching upon ATP binding; sequences stand for … in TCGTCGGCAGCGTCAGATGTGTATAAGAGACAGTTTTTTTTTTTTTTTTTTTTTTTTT…TC
measurementContext: aptamer strand: ATP DNA aptamer (quencher-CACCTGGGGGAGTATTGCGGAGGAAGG + anchor), 100 nM annealed; ATP concentration: 500 uM
Given measured switch fluorescence ratio, output yes (1) if it is greater than or equal to 1 and no (0) if not.

Decide: is the reported value of switch fluorescence ratio for TTACTTTTAC equal to or greater than 1? yes (1)

Proceed to CGTGCTGGGA yes (1)

Entry CGCGCATGGT please yes (1)

TTGGCATCAC , same question. yes (1)

Also CAAAAAACCT , if possible. yes (1)

And then AATTGGTGGT , what is it? no (0)

What do we get for CAAATATACG ? yes (1)

For ATGATGTAGG then? yes (1)

Try this sequence next: GATGTTAAAC yes (1)

How about CGATGAGAGT ? yes (1)

Field entry: TGGGGGCGTG no (0)

What do you have for AGTACGGTAA ? yes (1)

# repeat for ATTTTCGCAT yes (1)

Try this sequence next: GCAACCATTA yes (1)

And what about the sequence TTTACGATTG ? yes (1)

Thanks! And ACGTGCGGGC ? yes (1)

Could you do the same for GATTTCCCGC , please? yes (1)

Check CCTCGTGTTT too. yes (1)

Then this sequence: ATGAAGCATG yes (1)

# repeat for CTTTGTAGCC yes (1)

Then this sequence: GTTCATACGG yes (1)

Try this sequence too: CGTTATACTG yes (1)

Input GTTGGTTAGG no (0)

Same question for GCTCGGATAA please. yes (1)

Do the same for AAGTTGTCCG please no (0)

And for TTGAATACCC ? yes (1)

Try this sequence too: TTTTGCGCTG no (0)

Then TAAACTGCGA ? yes (1)

Same lookup for TTCTGTTGAC , please. yes (1)

Subsequent entry: TGGGGTTGAC no (0)

Now consider ACAATGGGTA and answer again. yes (1)

Request: ATGAGTCCGT yes (1)

Quick one: TTACACAGGT yes (1)

Also, CTTACAGCTT please. yes (1)

Then this sequence: GAAGGTGGGC no (0)
